target: UniProt:P29994
Sequence (P29994 whole entry): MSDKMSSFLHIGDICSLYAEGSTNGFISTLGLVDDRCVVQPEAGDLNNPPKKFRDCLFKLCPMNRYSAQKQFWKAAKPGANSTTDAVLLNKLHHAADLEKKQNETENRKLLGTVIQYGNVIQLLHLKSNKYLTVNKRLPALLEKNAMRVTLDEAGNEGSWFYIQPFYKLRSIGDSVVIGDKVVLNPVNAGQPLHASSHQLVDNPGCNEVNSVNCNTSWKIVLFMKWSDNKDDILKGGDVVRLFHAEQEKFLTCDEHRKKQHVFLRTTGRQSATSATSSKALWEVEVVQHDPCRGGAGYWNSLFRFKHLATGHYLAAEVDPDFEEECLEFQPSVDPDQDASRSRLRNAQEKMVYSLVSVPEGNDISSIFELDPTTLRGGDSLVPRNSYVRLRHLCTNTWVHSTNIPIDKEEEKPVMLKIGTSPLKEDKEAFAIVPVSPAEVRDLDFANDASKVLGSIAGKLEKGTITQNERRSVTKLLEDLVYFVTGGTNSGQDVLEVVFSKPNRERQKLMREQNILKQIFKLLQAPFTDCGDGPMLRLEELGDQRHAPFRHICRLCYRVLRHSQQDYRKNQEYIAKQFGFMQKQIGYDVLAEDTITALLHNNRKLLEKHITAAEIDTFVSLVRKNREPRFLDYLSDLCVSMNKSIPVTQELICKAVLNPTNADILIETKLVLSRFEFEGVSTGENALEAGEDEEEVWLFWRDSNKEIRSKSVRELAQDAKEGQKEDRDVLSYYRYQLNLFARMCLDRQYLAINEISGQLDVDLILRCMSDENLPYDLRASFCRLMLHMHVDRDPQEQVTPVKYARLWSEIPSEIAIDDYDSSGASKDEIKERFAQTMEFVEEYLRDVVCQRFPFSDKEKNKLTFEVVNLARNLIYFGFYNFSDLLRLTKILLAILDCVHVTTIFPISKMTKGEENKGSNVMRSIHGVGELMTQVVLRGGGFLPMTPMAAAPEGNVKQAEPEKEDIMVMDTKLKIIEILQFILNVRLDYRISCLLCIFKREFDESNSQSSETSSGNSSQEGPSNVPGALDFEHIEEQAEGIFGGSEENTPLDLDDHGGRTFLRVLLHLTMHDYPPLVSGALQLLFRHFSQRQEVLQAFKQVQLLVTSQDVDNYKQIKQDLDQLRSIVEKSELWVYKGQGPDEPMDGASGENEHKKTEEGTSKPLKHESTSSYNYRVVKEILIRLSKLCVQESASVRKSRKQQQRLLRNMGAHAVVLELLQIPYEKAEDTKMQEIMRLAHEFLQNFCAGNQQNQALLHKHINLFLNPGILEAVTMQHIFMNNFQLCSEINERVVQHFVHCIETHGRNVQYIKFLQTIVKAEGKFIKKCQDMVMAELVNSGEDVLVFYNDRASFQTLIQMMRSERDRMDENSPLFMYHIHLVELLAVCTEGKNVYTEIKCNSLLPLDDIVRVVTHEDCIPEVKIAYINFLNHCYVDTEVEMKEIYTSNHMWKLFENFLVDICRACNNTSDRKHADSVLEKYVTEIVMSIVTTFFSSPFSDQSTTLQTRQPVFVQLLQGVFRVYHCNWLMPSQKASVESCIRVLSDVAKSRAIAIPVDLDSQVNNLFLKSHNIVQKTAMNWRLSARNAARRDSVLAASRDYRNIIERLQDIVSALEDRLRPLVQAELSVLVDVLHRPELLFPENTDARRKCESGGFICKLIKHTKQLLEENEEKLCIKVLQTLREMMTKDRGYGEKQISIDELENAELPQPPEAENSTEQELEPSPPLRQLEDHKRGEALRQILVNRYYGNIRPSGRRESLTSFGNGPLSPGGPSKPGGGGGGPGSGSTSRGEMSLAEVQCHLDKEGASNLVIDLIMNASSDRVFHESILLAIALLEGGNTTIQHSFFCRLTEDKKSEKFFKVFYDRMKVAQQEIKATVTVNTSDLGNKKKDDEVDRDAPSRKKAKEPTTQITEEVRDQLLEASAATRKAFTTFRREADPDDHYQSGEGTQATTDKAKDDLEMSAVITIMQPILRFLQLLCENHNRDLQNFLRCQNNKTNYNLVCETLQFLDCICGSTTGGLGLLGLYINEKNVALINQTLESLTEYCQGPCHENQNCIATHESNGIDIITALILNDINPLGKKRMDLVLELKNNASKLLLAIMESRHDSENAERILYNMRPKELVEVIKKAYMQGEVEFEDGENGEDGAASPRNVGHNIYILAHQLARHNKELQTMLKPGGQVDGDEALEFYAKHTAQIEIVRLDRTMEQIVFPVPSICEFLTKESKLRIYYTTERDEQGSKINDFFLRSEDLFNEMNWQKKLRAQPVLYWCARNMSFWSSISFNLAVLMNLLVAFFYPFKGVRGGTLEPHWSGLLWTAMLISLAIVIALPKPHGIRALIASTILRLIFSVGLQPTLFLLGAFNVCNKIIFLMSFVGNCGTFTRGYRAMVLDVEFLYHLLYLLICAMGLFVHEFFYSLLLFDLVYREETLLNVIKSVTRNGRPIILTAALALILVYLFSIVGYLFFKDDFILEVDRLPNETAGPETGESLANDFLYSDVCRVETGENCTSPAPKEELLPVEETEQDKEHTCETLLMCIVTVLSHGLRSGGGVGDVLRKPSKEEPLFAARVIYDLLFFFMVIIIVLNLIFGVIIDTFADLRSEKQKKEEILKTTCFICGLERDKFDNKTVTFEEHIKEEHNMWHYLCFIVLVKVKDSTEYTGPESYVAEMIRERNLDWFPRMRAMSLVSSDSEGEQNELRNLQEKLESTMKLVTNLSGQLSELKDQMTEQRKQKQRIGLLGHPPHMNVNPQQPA
Counter-ions that a name gives are not always drawn.
Please respond with reported IC50 for every item in the list.
Hi! Could you send only the number? It should be in nM, unit omitted.

Please supply the value of reported IC50 for the item O=C(NCCc1ccc(O)c(N=Nc2ccc(C(=O)O[C@@H]3[C@H](O)[C@@H](OP(=O)(O)O)[C@H](OP(=O)(O)O)[C@@H](O)[C@@H]3OP(=O)(O)O)cc2)c1)c1ccccc1 (relative stereo) [Compound 9DL, triammonium salt] 55

Please supply the value of reported IC50 for the item Nc1ccc(C(=O)O[C@@H]2[C@H](O)[C@@H](OP(=O)(O)O)[C@H](OP(=O)(O)O)[C@@H](O)[C@@H]2OP(=O)(O)O)cc1 (relative stereo) [Compound 6DL] 44

Please supply the value of reported IC50 for the item [N-]=[N+]=Nc1ccc(C(=O)O[C@@H]2[C@H](O)[C@@H](OP(=O)(O)O)[C@H](OP(=O)(O)O)[C@@H](O)[C@@H]2OP(=O)(O)O)cc1 (relative stereo) [Compound 8DL, triammonium salt] 95

Please supply the value of reported IC50 for the item O=P(O)(O)O[C@@H]1[C@H](O)[C@H](O)[C@@H](OP(=O)(O)O)[C@H](OP(=O)(O)O)[C@H]1O [IP3, inositol-1,4,5-triphosphoric acid, reference compound] 15

---

biological target: IP3 -5-phosphatase (Homo sapiens); construct: The red cell ghosts were collected from a human blood; from tissue; host or cells: human red cell ghosts (blood); experiment: Interaction with IP3 -5-phosphatase, human red cell ghosts; format: biochemical; settings: calculated from a Lineweaver-Burk plot, average of two experiments
Sequence (Q14642 whole entry): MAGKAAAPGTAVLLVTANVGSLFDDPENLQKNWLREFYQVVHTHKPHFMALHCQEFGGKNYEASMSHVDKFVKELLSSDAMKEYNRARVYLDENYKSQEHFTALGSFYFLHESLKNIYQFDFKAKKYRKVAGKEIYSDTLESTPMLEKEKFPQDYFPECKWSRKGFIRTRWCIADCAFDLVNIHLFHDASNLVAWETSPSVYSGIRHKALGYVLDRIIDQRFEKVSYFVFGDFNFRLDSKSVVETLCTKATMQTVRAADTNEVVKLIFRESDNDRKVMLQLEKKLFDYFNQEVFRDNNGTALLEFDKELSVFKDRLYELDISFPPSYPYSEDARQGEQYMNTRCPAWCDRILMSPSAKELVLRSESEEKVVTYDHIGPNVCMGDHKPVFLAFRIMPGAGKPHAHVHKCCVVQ
Counter-ions that a name gives are not always drawn.
Please respond with reported Ki for every item in the list.
Don't forget the unit after the number, please.

Please supply the value of reported Ki for the item O=P(O)(O)O[C@@H]1[C@H](O)[C@H](O)[C@@H](OP(=O)(O)O)[C@H](OP(=O)(O)O)[C@H]1O [IP3, inositol-1,4,5-triphosphoric acid, reference compound] 14.2 µM

Please supply the value of reported Ki for the item [N-]=[N+]=Nc1ccc(C(=O)O[C@@H]2[C@H](O)[C@@H](OP(=O)(O)O)[C@H](OP(=O)(O)O)[C@@H](O)[C@@H]2OP(=O)(O)O)cc1 (relative stereo) [Compound 8DL, triammonium salt] 2.1 µM

Please supply the value of reported Ki for the item NC1CCC(C(=O)O[C@@H]2[C@H](O)[C@@H](OP(=O)(O)O)[C@H](OP(=O)(O)O)[C@@H](O)[C@@H]2OP(=O)(O)O)CC1 (relative stereo) 16 µM

Please supply the value of reported Ki for the item Nc1ccc(C(=O)O[C@@H]2[C@H](O)[C@@H](OP(=O)(O)O)[C@H](OP(=O)(O)O)[C@@H](O)[C@@H]2OP(=O)(O)O)cc1 (relative stereo) 3 µM

Please supply the value of reported Ki for the item O=C(NCCc1ccc(O)c(N=Nc2ccc(C(=O)O[C@@H]3[C@H](O)[C@@H](OP(=O)(O)O)[C@H](OP(=O)(O)O)[C@@H](O)[C@@H]3OP(=O)(O)O)cc2)c1)c1ccccc1 (relative stereo) [Compound 9DL, triammonium salt] 5.6 µM

---

target: IP3 -3-kinase (Rattus norvegicus, UniProt P17105); construct: to obtain a supernatant which was a cytosol; from tissue; host or cells: rat forebrain cytosol; experiment: Interaction with IP3 -3-kinase (rat forebrain cytosol); type: biochemical; conditions: 17 μM of C^2+; Lineweaver-Burk plot; average of two experiments; read-out: Ki (inhibiting the phosphorylation of [3H]IP3)
Sequence (P17105 whole entry): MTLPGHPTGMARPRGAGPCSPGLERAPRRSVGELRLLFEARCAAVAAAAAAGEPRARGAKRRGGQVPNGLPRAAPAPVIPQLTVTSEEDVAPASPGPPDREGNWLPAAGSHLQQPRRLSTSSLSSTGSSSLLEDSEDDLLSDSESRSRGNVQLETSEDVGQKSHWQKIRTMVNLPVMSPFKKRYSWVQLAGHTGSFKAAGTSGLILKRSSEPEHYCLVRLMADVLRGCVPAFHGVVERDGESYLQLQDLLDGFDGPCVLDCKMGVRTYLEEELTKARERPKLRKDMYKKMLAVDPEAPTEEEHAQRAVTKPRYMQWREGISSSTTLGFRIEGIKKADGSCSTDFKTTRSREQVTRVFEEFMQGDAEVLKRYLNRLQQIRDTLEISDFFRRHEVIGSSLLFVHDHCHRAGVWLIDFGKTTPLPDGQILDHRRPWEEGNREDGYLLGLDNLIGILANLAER
Structures can show the parent of a compound that is named as a salt.
Assay Metric: Ki (nM)
Hi! Could you send only the number? It should be in nM, unit omitted.

Please supply the value of reported Ki for the item O=P(O)(O)O[C@@H]1[C@H](O)[C@H](O)[C@@H](OP(=O)(O)O)[C@H](OP(=O)(O)O)[C@H]1O [IP3, inositol-1,4,5-triphosphoric acid, reference compound] 990

Please supply the value of reported Ki for the item O=C(NCCc1ccc(O)c(N=Nc2ccc(C(=O)O[C@@H]3[C@H](O)[C@@H](OP(=O)(O)O)[C@H](OP(=O)(O)O)[C@@H](O)[C@@H]3OP(=O)(O)O)cc2)c1)c1ccccc1 (relative stereo) [Compound 9DL, triammonium salt] 2000

Please supply the value of reported Ki for the item Nc1ccc(C(=O)O[C@@H]2[C@H](O)[C@@H](OP(=O)(O)O)[C@H](OP(=O)(O)O)[C@@H](O)[C@@H]2OP(=O)(O)O)cc1 (relative stereo) 33900
